- target.of.assay: Glutamate carboxypeptidase II (GCPII) (Homo sapiens, UniProt Q04609)
- Sequence (Q04609 whole entry): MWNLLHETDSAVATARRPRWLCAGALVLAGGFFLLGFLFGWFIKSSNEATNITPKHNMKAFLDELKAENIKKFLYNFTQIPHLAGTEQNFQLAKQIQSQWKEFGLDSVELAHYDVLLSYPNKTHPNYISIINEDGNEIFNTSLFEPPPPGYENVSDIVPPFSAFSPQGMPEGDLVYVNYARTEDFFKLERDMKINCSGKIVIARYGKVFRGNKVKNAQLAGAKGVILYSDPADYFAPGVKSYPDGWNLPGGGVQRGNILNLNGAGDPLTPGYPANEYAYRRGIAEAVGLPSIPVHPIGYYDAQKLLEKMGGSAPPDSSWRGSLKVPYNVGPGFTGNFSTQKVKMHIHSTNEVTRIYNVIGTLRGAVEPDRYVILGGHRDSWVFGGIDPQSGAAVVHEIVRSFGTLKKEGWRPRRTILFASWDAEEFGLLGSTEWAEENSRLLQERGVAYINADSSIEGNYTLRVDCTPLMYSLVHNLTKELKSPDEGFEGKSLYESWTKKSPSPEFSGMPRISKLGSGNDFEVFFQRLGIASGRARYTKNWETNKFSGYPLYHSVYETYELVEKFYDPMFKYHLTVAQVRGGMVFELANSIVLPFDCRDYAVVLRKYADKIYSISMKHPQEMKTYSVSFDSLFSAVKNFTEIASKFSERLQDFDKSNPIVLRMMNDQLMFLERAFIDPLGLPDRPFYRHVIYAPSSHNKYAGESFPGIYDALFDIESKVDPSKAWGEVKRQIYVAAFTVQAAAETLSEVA

{"columns": ["compound", "readout.units", "IC50"],
 "data": [
  ["N[C@@H](Cn1oc(=O)[nH]c1=O)C(=O)O [quisqualic acid]", "nM", 1590]
]}
